Target: Fructose-bisphosphate aldolase (Mycobacterium tuberculosis (strain ATCC 25618 / H37Rv)) (UniProt P9WQA3)
Sequence (P9WQA3 whole entry, looked up): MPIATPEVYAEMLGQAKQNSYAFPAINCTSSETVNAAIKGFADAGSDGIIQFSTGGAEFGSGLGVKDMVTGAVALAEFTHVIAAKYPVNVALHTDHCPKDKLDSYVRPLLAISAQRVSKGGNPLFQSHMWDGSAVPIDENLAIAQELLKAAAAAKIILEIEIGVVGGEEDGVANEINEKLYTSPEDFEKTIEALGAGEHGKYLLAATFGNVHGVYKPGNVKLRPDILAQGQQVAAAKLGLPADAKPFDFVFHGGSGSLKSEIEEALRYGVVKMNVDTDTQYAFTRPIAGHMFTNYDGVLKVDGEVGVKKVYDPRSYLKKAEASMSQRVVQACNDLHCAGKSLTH
Assay: Mtb FBA enzyme inhibitors, primary screen, biochemical, fluorescence, strain H37Rv (AID 588726);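 also: 0% = vehicle and 100% = reference inhibitor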
Conditions: purified M. tuberculosis FBA, fluorescence read-out, at 1 µM
Among all 360,000 compounds or so, about 8,200 (2.3%) were called active. Rule as the data show it: active = inhibition above about 27%; inactive = the rest. The list comes from a sample in which actives are over-represented; it also holds close analogues and randomly drawn compounds.
Outcome codes: active, inactive

molecule	answer-label
C[C@@H]1CN([C@@H](C)CO)C(=O)c2c(c3ccccc3n2C)-c2ccccc2CO[C@H]1CN(C)C(=O)C1CC1	inactive
Nc1ccc2nn(-c3ccc(Cl)cc3)nc2c1	active
CCOc1ccc(C(=O)NC(=S)Nc2ccc(N3CCOCC3)c(Cl)c2)cc1[N+](=O)[O-]	inactive
O=C(NC1CC2CCCC(C1)N2C(=O)N1CCCCC1)C1CCCCC1 (stereo unspecified)	inactive
CCN(C(=O)c1cc([N+](=O)[O-])ccc1NCc1cccnc1)c1ccccc1	inactive
C=CCn1cc(C(=O)NCc2ccc(Cl)cc2)c(=O)c2cc(S(=O)(=O)N(CC)CC)ccc21	inactive
Nc1nc2cc(Cl)ccc2n1N	inactive
Nc1ccc2c(c1)C(O)c1ccc(Cl)cc1-2 (stereo unspecified)	inactive
COc1ccc(NC2CC(=O)N(C)C2=O)cc1 (stereo unspecified)	inactive
CC1CN(/C=C/C(=O)C(F)(F)F)CC(C)O1 (stereo unspecified)	inactive
Cc1nc2ccc(S(=O)(=O)NCC(=O)O)cc2s1	inactive
COc1cccc(C(=O)OCc2cc(=O)oc3c(C)c(C)ccc23)c1OC	inactive
Cc1cc(=O)oc2c(C)c(OC(C)C(=O)NC3CCN(Cc4ccccc4)CC3)ccc12 (stereo unspecified)	inactive
CNC(=O)c1nnn(-c2ccccc2)c1C(=O)NC	inactive
CC(C)(C)n1nnc(CCc2nnn(C(C)(C)C)n2)n1	inactive
CC(C)(C)NS(=O)(=O)NC(=O)C1=C(N2CCCC2)COC1=O	inactive

---

Target: Fructose-bisphosphate aldolase (Mycobacterium tuberculosis (strain ATCC 25618 / H37Rv)) (UniProt P9WQA3)
Experiment: Mtb FBA enzyme inhibitors, primary screen, biochemical, fluorescence, strain H37Rv (AID 588726);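 also: 0% = vehicle and 100% = reference inhibitor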
Details: purified M. tuberculosis FBA, fluorescence read-out, at 1 µM, active compounds read high
In all, about 360,000 compounds went through this assay and about 8,200 (2.3%) were called active. For the sample, actives were picked, then their nearest neighbours and some compounds at random.

compound	unit-name	inhibition
CCC(=O)Nc1ccc(-c2ccc(N3CCCCC3)nn2)cc1	%	4.9
COC(=O)c1ccc(C2C(Oc3ccccc3C)C(=O)N2CCc2ccc(OC)c(OC)c2)cc1 (centres undefined)	%	-0.68
CCOC(=O)[C@H]1[C@H]2COc3ccc(C)cc3[C@@H]2N2C(=O)CN(Cc3ccc(F)cc3)C(=O)[C@@]12C	%	0.55
O=C(/C=C/[C@H]1O[C@@H](n2ccc(=O)[nH]c2=O)[C@H](O)[C@@H]1O)NCc1ccccn1	%	-1.68

---

Target: Fructose-bisphosphate aldolase (Mycobacterium tuberculosis (strain ATCC 25618 / H37Rv)) (UniProt P9WQA3)
Assay: Mtb FBA enzyme inhibitors, primary screen, biochemical, fluorescence, strain H37Rv (AID 588726);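 also: 0% = vehicle and 100% = reference inhibitor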
Conditions: purified M. tuberculosis FBA, fluorescence read-out, at 1 µM, active compounds read high
Hit rate of the full screen: of about 360,000 compounds, about 8,200 (2.3%) were called active. Only a selection was taken, and actives are over-represented in it overall.
Reported inhibition values for a set of compounds

compound	unit-name	inhibition
O=S(=O)(c1cccc(C(F)(F)F)c1)N1c2ccccc2-n2cccc2C1c1cccnc1 (stereo not drawn)	%	-0.16
O=C(O)Cc1sc(-c2ccc(C(=O)O)cc2)nc1-c1ccccc1	%	37
Cc1cc(C)cc(NC(=O)Cn2cnc3c(nnn3Cc3ccc(F)cc3)c2=O)c1	%	1.33
O=C(NCc1ccccc1)c1ccc(CNc2c(N3CCCC3)c(=O)c2=O)cc1	%	4.44
Cc1nc2nc(SCC(=O)Nc3cccc(F)c3)[nH]c2cc1Br	%	-2.16
COc1ccc(S(=O)(=O)NC(=O)C2(C)CCN2C(=O)c2ccccc2CCc2ccccc2)cc1 (stereo not drawn)	%	0.28
CN(C)c1nc(-c2cccnc2)nc(-c2ccc(Cl)cc2)c1C#N	%	-3.84
COCCCN1C(=O)C(=O)/C(=C(/O)c2ccc(S(=O)(=O)N3CCOCC3)cc2)C1c1ccc(F)cc1 (stereo not drawn)	%	4.42
Cc1ccc(C2CCN(C(=S)Nc3cccc(Cl)c3)C2)cc1 (stereo not drawn)	%	-1.23
COc1ccc(CCNC(=O)C(=O)Nc2ccc3nc4n(c(=O)c3c2)CCCCC4)cc1OC	%	-5.38
COc1ccc(Cl)cc1NC(=O)c1cccc(N2C(=O)C3CC=CCC3C2=O)c1 (stereo not drawn)	%	-2.03
CCNC(=S)N(CCN(CC)CC)Cc1cc2cc3c(cc2[nH]c1=O)OCCO3	%	22
CCOC(=O)C1CCN(C(=O)C2CCCN(S(=O)(=O)c3ccc(OC)c(Cl)c3)C2)CC1 (stereo not drawn)	%	13.8
Cc1cc(=O)oc2c(C)c(OCC(=O)NCCN3CCOCC3)ccc12	%	16
CCC(C)(C)C1CCC(=NNC(=O)c2ccc(Br)o2)CC1 (stereo not drawn)	%	-1.67
Cc1cc(C)c2c(c1)NP(=S)(c1ccccc1)N2 (stereo not drawn)	%	34.4
CC(=O)NCCC(=O)Nc1nc(C)c(Cc2ccc3c(c2)OCO3)s1	%	-0.89
COC(=O)C(NS(=O)(=O)c1ccc(F)cc1)c1ccccc1 (stereo not drawn)	%	1.52
CCCc1cc(=O)oc2c(C)c(OCC(=O)NCc3ccccn3)ccc12	%	0.52
CCN(CC)CCCNC(=S)N(CCO)Cc1cc2cc3c(cc2[nH]c1=O)OCO3	%	13.2
O=C(CCNC(=O)c1ccc(Br)cc1)NCC(c1ccco1)N1CCCCC1 (stereo not drawn)	%	-0.35
O=C(c1ccccc1[N+](=O)[O-])N1CCC2(CC1)OCCO2	%	0.71
O=C(Nc1cccc2ccccc12)N1CCN(Cc2ccc3c(c2)OCO3)CC1	%	41.2

---

Listing: inhibition of selected compounds
Target: Fructose-bisphosphate aldolase (Mycobacterium tuberculosis (strain ATCC 25618 / H37Rv))
Experiment: Mtb FBA enzyme inhibitors, primary screen, biochemical, fluorescence, strain H37Rv (AID 588726);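 also: 0% = vehicle and 100% = reference inhibitor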
Conditions: purified M. tuberculosis FBA, fluorescence read-out, at 1 µM, active compounds read high
The campaign covered roughly 360,000 compounds. About 8,200 (2.3%) were called active. The list comes from a sample in which actives are over-represented; it also holds close analogues and randomly drawn compounds.

compound	assayed-system	inhibition / %
C/C(=N\NC(=O)c1cc(-c2ccc(O)cc2)nc2ccccc12)c1cccnc1	Fructose-bisphosphate aldolase (Mycobacterium tuberculosis (strain ATCC 25618 / H37Rv))	0.88
O=C(CSc1nc2c(cnn2-c2ccc(F)cc2)c(=O)[nH]1)N1CCCCCC1	Fructose-bisphosphate aldolase (Mycobacterium tuberculosis (strain ATCC 25618 / H37Rv))	2.6
O=[N+]([O-])c1cnc2ccc3ccccc3c2c1	Fructose-bisphosphate aldolase (Mycobacterium tuberculosis (strain ATCC 25618 / H37Rv))	1.36
COc1cc(CN2CCCN(C)CC2)c([N+](=O)[O-])cc1OC	Fructose-bisphosphate aldolase (Mycobacterium tuberculosis (strain ATCC 25618 / H37Rv))	2.5
Cc1ccc(OCC(=O)Nc2ccccc2Sc2ccc(Cl)cc2)c([N+](=O)[O-])n1	Fructose-bisphosphate aldolase (Mycobacterium tuberculosis (strain ATCC 25618 / H37Rv))	-0.96
CC(=O)c1sc2nc(SCC(=O)N3CCCCC3)[nH]c(=O)c2c1C	Fructose-bisphosphate aldolase (Mycobacterium tuberculosis (strain ATCC 25618 / H37Rv))	30.5
CCOC(=O)C1CCCN(C(=O)c2ccc(CS(=O)(=O)c3ccc(Br)cc3)o2)C1 (configuration not stated)	Fructose-bisphosphate aldolase (Mycobacterium tuberculosis (strain ATCC 25618 / H37Rv))	1.86

---

Biological target: Fructose-bisphosphate aldolase (Mycobacterium tuberculosis (strain ATCC 25618 / H37Rv))
Experiment: Mtb FBA enzyme inhibitors, primary screen, biochemical, fluorescence, strain H37Rv (AID 588726);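 also: 0% = vehicle and 100% = reference inhibitor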
Conditions: purified M. tuberculosis FBA, fluorescence read-out, at 1 µM
In all, about 360,000 compounds went through this assay and about 8,200 (2.3%) were called active. No stated cut-off is given here; in the data, active means inhibition above about 27%; inactive means the rest. The sample holds actives, similar compounds and a random draw of the others, so the mix is not that of the screen.
Possible outcomes: active, inactive

compound	answer-label
O=c1oc2c(CN3CCCCC3)c(O)ccc2c2c1CCCCC2	active
CC(=O)Nc1ccc(Nc2ncnc3c2nnn3Cc2ccccc2Cl)cc1	inactive
CCCCCC(=O)Nc1ccc(S(=O)(=O)Nc2ccc(Cl)nn2)cc1	inactive
COc1ccc(NC(=O)/C(N=Nc2cccc(S(=O)(=O)Nc3ccc(SC(F)F)cc3)c2)=C(\C)O)cc1	inactive
CCOC(=O)Cc1csc(SCc2cc(=O)oc3cc(O)ccc23)n1	inactive
O=C1/C(=C/c2coc3ccc(O)cc3c2=O)SC(=S)N1c1ccccc1	inactive
Cc1nonc1OCCn1nnnc1N	inactive
O=c1cc(CN2CCN(S(=O)(=O)/C=C/c3ccccc3)CC2)c2ccc(O)cc2o1	active
Oc1ccccc1C1=NN(c2ccccc2)C(c2ccccc2)C1 (configuration not stated)	active
Cn1c(=O)c2c(nc(N3CCOCC3)n2CCNC2=NCCC2)n(C)c1=O	inactive
O=C1C2N=NN(CC(=O)N3N=C(c4cccc5ccccc45)CC3c3ccccc3)C2C(=O)N1c1ccccc1 (configuration not stated)	inactive
CC(C)C(NC(=O)OCc1ccccc1)C(=O)OCC(=O)N1C(C)CCCC1C (configuration not stated)	inactive
CC(=O)Nc1ccc(S(=O)(=O)Nc2ccc(-c3ccc4nnc(C)n4n3)cc2)cc1	inactive
O=S(=O)(c1ccc(F)cc1)N1CCN(C(=S)NC2CCCC2)CC1	inactive
O=C(c1c(F)cccc1Cl)N1CCN(c2ccccn2)CC1	active
N#Cc1ccc(N2Cc3ccccc3/C2=N/C(=O)Nc2ccc(Cl)cc2)cc1	inactive
CC1CCCCC1NC(=O)CN1CCC(O)(c2ccc3c(c2)OCO3)CC1 (configuration not stated)	inactive
CC(C)=CCc1c(O)c(CC=C(C)C)c2occ(-c3ccc(O)cc3)c(=O)c2c1O	inactive
NC(=O)CCN1CCN(S(=O)(=O)/C=C/c2ccccc2)CC1	inactive
O=C(CNC(=O)c1ccccc1Br)NCCSc1ccc(Br)cc1	inactive
COc1ccc(CNC(=O)c2c[nH]c3c(OC)cc(OC)cc3c2=O)cc1	active
Cc1c(CN2CCCCC2)c(O)n(CCO)c(=O)c1C#N	inactive
COc1ccc(CCNC(=O)C2CC3Cn4c(nc5cc(C)c(C)cc54)C3N2C)cc1 (configuration not stated)	inactive
Cc1nc(COc2cc3oc(=O)cc(C)c3cc2Cl)cs1	active
CCN(c1ccccc1)S(=O)(=O)c1ccc(NC(=O)C(C)(C)C)cc1	inactive
CCC1Oc2ccccc2N(CC(=O)NCCCN2CCN(CC)CC2)C1=O (configuration not stated)	inactive
COc1ccc(C(=O)OCc2cc(=O)n3ccsc3n2)cc1F	inactive
Cc1ccc(N2C(=O)C3N=NN(CC(=O)N4N=C(c5cccc6ccccc56)CC4c4ccccc4)C3C2=O)cc1 (configuration not stated)	inactive
CCCCC(=O)Nc1ccc(C(=O)NCCCn2ccnc2)cc1	inactive
CCc1ccc(-c2cc(C(=O)NCc3ccco3)c3ccccc3n2)s1	active
COc1ccc(NC(=O)c2cccc3c2C(=O)N(CC2CCCO2)C3)cc1OC (configuration not stated)	inactive
O=C(COc1cc(Cl)c(Cl)cc1Cl)NC(=O)NC1CCCC1	inactive
